measured-target: MERTK (UniProt Q12866)
Sequence (Q12866 whole entry, looked up): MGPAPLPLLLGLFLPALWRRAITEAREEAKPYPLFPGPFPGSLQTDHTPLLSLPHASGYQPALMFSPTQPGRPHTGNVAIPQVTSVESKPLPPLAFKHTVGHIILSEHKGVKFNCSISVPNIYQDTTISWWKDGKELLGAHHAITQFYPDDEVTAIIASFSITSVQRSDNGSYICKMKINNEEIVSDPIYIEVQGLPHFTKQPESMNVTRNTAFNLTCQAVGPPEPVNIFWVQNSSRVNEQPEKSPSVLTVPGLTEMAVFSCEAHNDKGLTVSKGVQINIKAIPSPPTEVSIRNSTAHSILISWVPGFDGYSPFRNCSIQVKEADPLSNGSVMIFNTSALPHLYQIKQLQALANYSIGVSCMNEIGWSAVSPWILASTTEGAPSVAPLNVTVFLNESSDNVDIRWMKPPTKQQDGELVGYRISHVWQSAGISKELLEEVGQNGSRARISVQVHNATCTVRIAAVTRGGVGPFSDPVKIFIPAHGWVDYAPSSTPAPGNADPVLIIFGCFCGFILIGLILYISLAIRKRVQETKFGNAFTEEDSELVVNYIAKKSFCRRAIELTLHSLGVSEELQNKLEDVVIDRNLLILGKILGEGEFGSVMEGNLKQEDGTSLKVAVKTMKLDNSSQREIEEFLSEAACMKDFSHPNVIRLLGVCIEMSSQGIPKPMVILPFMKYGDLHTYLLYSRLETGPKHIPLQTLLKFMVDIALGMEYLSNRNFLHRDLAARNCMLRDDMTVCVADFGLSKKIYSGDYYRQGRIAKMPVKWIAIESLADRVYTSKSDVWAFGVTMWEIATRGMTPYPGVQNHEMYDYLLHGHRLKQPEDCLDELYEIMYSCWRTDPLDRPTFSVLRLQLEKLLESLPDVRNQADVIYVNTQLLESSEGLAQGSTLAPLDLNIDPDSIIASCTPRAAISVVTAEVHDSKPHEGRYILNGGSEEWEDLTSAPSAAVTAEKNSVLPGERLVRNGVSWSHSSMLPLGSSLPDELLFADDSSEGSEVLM
test-name: phosphorylation enrichment, bacterial display (enrichment ratio); higher = better substrate or ligand; peptides without Tyr show the background;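 further: 11-residue human phosphosite peptides and single-mutation variants displayed on the E. coli surface, counted by deep sequencing, each peptide's frequency after selection divided by its frequency in the unselected input library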;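 further: frequency after pTyr selection over input frequency; kinase dosed for 20-30% of maximal phosphorylation in three min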
Outcome: Condition met for phosphorylation enrichment of at least 0.5; Condition not met for anything lower.

Has HTKKNYGNSSV [HDX_Y197_A193T] a recorded phosphorylation enrichment greater than or equal to 0.5?
Condition not met

Has SQGRQYQELPR [KCNH2_Y1009_R1005Q] a recorded phosphorylation enrichment greater than or equal to 0.5?
Condition not met

Has EKPAKYDDIKK [GAPDH_Y255] a recorded phosphorylation enrichment greater than or equal to 0.5?
Condition not met

Has VYLGAYDCFLP [SLC22A5_Y486_R488C] a recorded phosphorylation enrichment greater than or equal to 0.5?
Condition met

Has SVVVPYEPPEF [TP53_Y220_V225F] a recorded phosphorylation enrichment greater than or equal to 0.5?
Condition not met

Has ERRLIYASDPK [VPS13D_Y864_T865A] a recorded phosphorylation enrichment greater than or equal to 0.5?
Condition not met

Has SGVSYYINLCQ [IGF2R_Y2025_N2020S] a recorded phosphorylation enrichment greater than or equal to 0.5?
Condition not met

Has DKEKWYPLGNS [PIK3C2G_Y1438] a recorded phosphorylation enrichment greater than or equal to 0.5?
Condition not met

Has TLARLYHPDST [LRIG1_Y1029] a recorded phosphorylation enrichment greater than or equal to 0.5?
Condition not met

Has IYQASYYRRGD [LTK_Y676_R673Q] a recorded phosphorylation enrichment greater than or equal to 0.5?
Condition met

Has YTHSDYQYSQR [PKP2_Y166] a recorded phosphorylation enrichment greater than or equal to 0.5?
Condition not met

Has PQAVTYAEVKH [LILRB4_Y360_K362E] a recorded phosphorylation enrichment greater than or equal to 0.5?
Condition met

Has TDLAYYLVREG [ASL_Y376_K380E] a recorded phosphorylation enrichment greater than or equal to 0.5?
Condition met

Has PINLFYLMDLS [ITGB2_Y131_D128N_YF] a recorded phosphorylation enrichment greater than or equal to 0.5?
Condition met

Has DEENFYQGSME [ASCC1_Y36_D34N] a recorded phosphorylation enrichment greater than or equal to 0.5?
Condition met

Has SEPDLYFDPRG [PKP1_Y160_C161Y_YF] a recorded phosphorylation enrichment greater than or equal to 0.5?
Condition met

Has AIYEGYALPHA [ACTC1_Y171_P166A] a recorded phosphorylation enrichment greater than or equal to 0.5?
Condition met

Has IALSKYGRVKR [FGF6_Y186] a recorded phosphorylation enrichment greater than or equal to 0.5?
Condition not met

Has EAVSIYQFHGQ [CBLC_Y402] a recorded phosphorylation enrichment greater than or equal to 0.5?
Condition met

Has NNIDFYKKTTN [FGFR2_Y657_YF] a recorded phosphorylation enrichment greater than or equal to 0.5?
Condition not met

Has KPGLKYVTFGN [GALNTL5_Y404_YF] a recorded phosphorylation enrichment greater than or equal to 0.5?
Condition not met

Has LLKKVYLMLDN [STAT1_Y203_M202V] a recorded phosphorylation enrichment greater than or equal to 0.5?
Condition met

Has EKAEVYGSENE [RIOK2_Y348] a recorded phosphorylation enrichment greater than or equal to 0.5?
Condition not met

Has VVEVTYDDVPI [FLNB_Y1308] a recorded phosphorylation enrichment greater than or equal to 0.5?
Condition met

Has PDDPDYSLVDD [PSTPIP2_Y323_N322D] a recorded phosphorylation enrichment greater than or equal to 0.5?
Condition met

Has SVSVNYGDQVQ [GRAP_Y101] a recorded phosphorylation enrichment greater than or equal to 0.5?
Condition met

Has SDFSRYARTSI [TERT_Y949_S948R_YF] a recorded phosphorylation enrichment greater than or equal to 0.5?
Condition not met

Has GGFSRYDEGSG [RECQL5_Y484_D480G] a recorded phosphorylation enrichment greater than or equal to 0.5?
Condition not met

Has VTRLWYPVCFG [ITK_Y336_R335W] a recorded phosphorylation enrichment greater than or equal to 0.5?
Condition not met

Has DNEALYDICFC [TUBB3_Y208_R213C] a recorded phosphorylation enrichment greater than or equal to 0.5?
Condition met

Has EILDVYIFLGP [GAA_Y340_G335E] a recorded phosphorylation enrichment greater than or equal to 0.5?
Condition met

Has FKDYFYCWNTF [AICDA_Y146] a recorded phosphorylation enrichment greater than or equal to 0.5?
Condition met

Has AAALAYGLDKS [HSPA9_Y230] a recorded phosphorylation enrichment greater than or equal to 0.5?
Condition not met

Has ATDLAYYLVCK [ASL_Y375_R379C] a recorded phosphorylation enrichment greater than or equal to 0.5?
Condition met

Has KERNQYGEVMV [MMP21_Y347] a recorded phosphorylation enrichment greater than or equal to 0.5?
Condition not met

Has NLVSEYQQYQD [TUBB3_Y422_D417N] a recorded phosphorylation enrichment greater than or equal to 0.5?
Condition not met

Has FISVGYVDDTL [HLA-B_Y51_Q56L] a recorded phosphorylation enrichment greater than or equal to 0.5?
Condition not met

Has RPAPQYPHQVP [ADAM12_Y895] a recorded phosphorylation enrichment greater than or equal to 0.5?
Condition met

Has CLLHCYFSQIH [MCM3AP_Y873_R878H] a recorded phosphorylation enrichment greater than or equal to 0.5?
Condition not met

Has EFQKKYSDADI [CKAP5_Y1860_K1857Q_YF] a recorded phosphorylation enrichment greater than or equal to 0.5?
Condition not met

Has VECQVYAEDPY [PCCA_Y401_R399Q] a recorded phosphorylation enrichment greater than or equal to 0.5?
Condition not met

Has KELAKYYKLHH [AK7_Y390_N389K] a recorded phosphorylation enrichment greater than or equal to 0.5?
Condition not met

Has HSYNSYTYPRL [PAK5_Y316] a recorded phosphorylation enrichment greater than or equal to 0.5?
Condition met

Has IGLHAYGDQFR [IDH1_Y135_R132L_YF] a recorded phosphorylation enrichment greater than or equal to 0.5?
Condition not met

Has SVTCTYSPAPN [TP53_Y126_L130P] a recorded phosphorylation enrichment greater than or equal to 0.5?
Condition not met

Has FLRKEYGGVNV [CBR3_Y81_L84V] a recorded phosphorylation enrichment greater than or equal to 0.5?
Condition not met

Has RRIHSYRGHVW [VHL_Y112_L116V] a recorded phosphorylation enrichment greater than or equal to 0.5?
Condition met

Has ISSLLYELLEE [TRPC6_Y896_R895L] a recorded phosphorylation enrichment greater than or equal to 0.5?
Condition met

Has HQKKPYCHTHN [NRAP_Y53_A56T] a recorded phosphorylation enrichment greater than or equal to 0.5?
Condition met

Has RELGEYGLQAF [ALDH2_Y497_YF] a recorded phosphorylation enrichment greater than or equal to 0.5?
Condition met

Has KSEMSYIDGEK [SORBS1_Y485] a recorded phosphorylation enrichment greater than or equal to 0.5?
Condition not met

Has LEKISYVFMKR [SSX7_Y48_YF] a recorded phosphorylation enrichment greater than or equal to 0.5?
Condition met
